Test system: Rattus norvegicus
Assay: % excretion of radioiron determined in feces of rat followed by intravenous injection of transferrin pre-incubated with 10 mg of chelating agent
Assay type: ADME, organism-based
Details: in vivo
property.name: Distribution (%)

Task item: Need Distribution, item Cc1ncc(CO)c(/C=N/NC(=O)c2ccnc3ccccc23)c1O
Reply: 6.8

(I) Cc1ncc(CO)c(/C=N/NC(=O)c2cccnc2)c1O
(II) CC(=O)N(O)CCCCCNC(=O)CCC(=O)N(O)CCCCCNC(=O)CCC(=O)N(O)CCCCCN [DEFEROXAMINE]
(III) Cc1ncc(CO)c(/C=N/NC(=O)c2ccncc2)c1O [PYRIDOXAL ISONICOTINOYL HYDRAZONE]
(IV) CC(=O)OCc1cnc(C)c(O)c1/C=N\NC(=O)c1ccncc1
(V) COc1ccc(COC(=O)N/N=C/c2c(CO)cnc(C)c2O)cc1
Task item: Order the 5 molecules from highest to lowest Distribution. # the answer lists labels in the order requested
Reply: III, II, IV, I, V
(III: 32.8%, II: 18.7%, IV: 10.4%, I: 6%, V: 3.3%)

====

Species on record: Rattus norvegicus
Experiment: […] determined in urine of rat followed by […] of chelating agent
Type: ADME, organism-based
Conditions: in vivo, iv
property.name: Distribution (%)

Consider the following illustrative entries.
Task item: Need Distribution, item CCOC(=O)N/N=C/c1c(CO)cnc(C)c1O
Reply: 0.03

Task item: Need Distribution, item Cc1ncc(CO)c(/C=N/NC(=O)c2ccncc2)c1O [PYRIDOXAL ISONICOTINOYL HYDRAZONE]
Reply: 0.05

Task item: Need Distribution, item CC(=O)N(O)CCCCCNC(=O)CCC(=O)N(O)CCCCCNC(=O)CCC(=O)N(O)CCCCCN
Reply: 0.08

Task item: Need Distribution, item Cc1ncc(CO)c(/C=N/NC(=O)OC(C)(C)C)c1O
Reply: 0.08

(a) Cc1ncc(CO)c(/C=N/NC(N)=O)c1O
(b) Cc1ncc(CO)c(/C=N/Nc2nc(-c3ccccc3)cs2)c1O
(c) Cc1csc(N/N=C/c2c(CO)cnc(C)c2O)n1
Task item: Order the 3 compounds from highest to lowest Distribution. # the answer lists labels in the order requested
Reply: a, b, c

====

System: Rattus norvegicus
Assay: % distribution of the radioiron in rat kidney followed by intravenous injection of transferrin pre-incubated with 10 mg of chelating agent
Type: ADME, organism-based
Conditions: in vivo
property.name: Distribution (%)

Task item: Under Rattus norvegicus: Distribution value of Cc1ncc(CO)c(/C=N/NC(=O)c2ccncc2)c1O [PYRIDOXAL ISONICOTINOYL HYDRAZONE] ?
Reply: 0.6

Task item: Under Rattus norvegicus: Distribution value of CC(=O)OCc1cnc(C)c(O)c1/C=N\NC(=O)c1ccncc1 ?
Reply: 0.8

Task item: Under Rattus norvegicus: Distribution value of Cc1ncc(CO)c(/C=N/NC(=O)c2ccnc3ccccc23)c1O ?
Reply: 1

Task item: Under Rattus norvegicus: Distribution value of CC(=O)N(O)CCCCCNC(=O)CCC(=O)N(O)CCCCCNC(=O)CCC(=O)N(O)CCCCCN ?
Reply: 0.6

Task item: Under Rattus norvegicus: Distribution value of Cc1ncc(CO)c(/C=N/NC(=O)c2cccnc2)c1O ?
Reply: 1

Task item: Under Rattus norvegicus: Distribution value of COc1ccc(COC(=O)N/N=C/c2c(CO)cnc(C)c2O)cc1 ?
Reply: 0.8
